- Tested System: human NHE-1 (Homo sapiens, UniProt P19634)
- Sequence (P19634 whole entry): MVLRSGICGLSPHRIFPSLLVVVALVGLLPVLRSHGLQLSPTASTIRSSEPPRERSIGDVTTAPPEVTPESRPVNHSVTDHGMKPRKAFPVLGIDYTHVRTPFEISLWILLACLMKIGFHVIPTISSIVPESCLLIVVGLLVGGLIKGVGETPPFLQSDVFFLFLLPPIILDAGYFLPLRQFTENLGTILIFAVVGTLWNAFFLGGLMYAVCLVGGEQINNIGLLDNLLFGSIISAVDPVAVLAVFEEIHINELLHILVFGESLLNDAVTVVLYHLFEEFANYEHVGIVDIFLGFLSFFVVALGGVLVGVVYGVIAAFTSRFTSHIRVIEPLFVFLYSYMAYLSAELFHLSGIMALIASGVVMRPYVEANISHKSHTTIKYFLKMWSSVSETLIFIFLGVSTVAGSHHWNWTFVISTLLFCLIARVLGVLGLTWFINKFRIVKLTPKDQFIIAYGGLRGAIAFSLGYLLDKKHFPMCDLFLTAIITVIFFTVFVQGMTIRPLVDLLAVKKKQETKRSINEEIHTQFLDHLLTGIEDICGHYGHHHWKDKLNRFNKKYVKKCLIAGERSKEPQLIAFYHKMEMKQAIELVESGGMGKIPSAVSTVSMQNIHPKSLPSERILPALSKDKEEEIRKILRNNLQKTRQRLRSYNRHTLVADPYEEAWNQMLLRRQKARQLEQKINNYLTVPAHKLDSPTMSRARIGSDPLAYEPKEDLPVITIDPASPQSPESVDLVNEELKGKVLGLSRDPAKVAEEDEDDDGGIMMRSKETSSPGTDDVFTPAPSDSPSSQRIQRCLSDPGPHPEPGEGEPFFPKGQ
- Experiment Description: NHE-1 inhibition, FLIPR assay measuring recovery of pHi in transfected cell lines
- Setup Conditions: pHi recovery in transfected LAP-1 cell lines expressing human NHE-1, read-out: NHE1 inhibition IC50
pIC50: −log10 of the molar value.
Use 8 as the dividing line for pIC50, with the line itself on the True side and lower values as False.

Query :: Say whether "Cc1cc(S(=O)(=O)c2ccc(S(F)(F)(F)(F)F)cc2)c(S(C)(=O)=O)cc1C(=O)N=C(N)N" shows pIC50 of 8 or more.
Result :: False

***
Query :: Say whether "Cc1cc(-c2ccc(S(F)(F)(F)(F)F)cc2C)c(S(C)(=O)=O)cc1C(=O)N=C(N)N" shows pIC50 of 8 or more.
Result :: False

Query :: Say whether "Cc1cc(-c2cccc(S(F)(F)(F)(F)F)c2)c(S(C)(=O)=O)cc1C(=O)N=C(N)N" shows pIC50 of 8 or more.
Result :: False

* * *

- Experiment Description: In vivo pharmacokinetics, profiling with the "n in one method"
- Setup Conditions: iv; fasting male beagle dog, single i.v. bolus into jugular vein, about 1 mg/kg of each substance, given together, plasma; read-out: Half-life t½ (converted)
half-life by entry:
Please respond with the number in min and leave the unit unwritten.

Query :: Could you share which half-life value was measured for "Cc1cc(Oc2cccc(S(F)(F)(F)(F)F)c2)c(S(C)(=O)=O)cc1C(=O)N=C(N)N" ?
Result :: 1210

Query :: Could you share which half-life value was measured for "Cc1cc(-c2ccc(S(F)(F)(F)(F)F)cc2)c(S(C)(=O)=O)cc1C(=O)N=C(N)N" ?
Result :: 2390

Query :: Could you share which half-life value was measured for CC(C)c1ccc(C(=O)N=C(N)N)cc1S(C)(=O)=O.CS(=O)(=O)O [cariporide, reference compound] ?
Result :: 246

* * *

- Tested System: human NHE-1 (Homo sapiens, UniProt P19634)
- Experiment Description: NHE-1 inhibition, FLIPR assay measuring recovery of pHi in transfected cell lines
- Setup Conditions: pHi recovery in transfected LAP-1 cell lines expressing human NHE-1, read-out: NHE1 inhibition IC50
- Procedure: The NHE-1 inhibition IC50 was determined in an FLIPR assay by measurement of the recovery in pHi in transfected cell lines which express human NHE-1. The assay was carried out in an FLIPR (fluorescent imaging plate reader) with black-walled 96-well microtiter plates with clear bases. The growth medium for the transfected cells (Iscove+10% fetal calf serum) additionally contained G418 as selection antibiotic in order to ensure the presence of the transfected sequences. […]
Measurement Type: log10 IC50 (log10 of the value in nM)
Each number you see is log10 of IC50, and the unit inside the log is nM.

Query :: Notebook: pull reported log10 IC50 for human NHE-1 (Homo sapiens, UniProt P19634), entry "Cc1cc(Oc2cccc(S(F)(F)(F)(F)F)c2)c(S(C)(=O)=O)cc1C(=O)N=C(N)N"
Result :: 0.59

Query :: Notebook: pull reported log10 IC50 for human NHE-1 (Homo sapiens, UniProt P19634), entry "Cc1cc(Oc2ccc(S(F)(F)(F)(F)F)cc2)c(S(C)(=O)=O)cc1C(=O)N=C(N)N"
Result :: 0.28

Query :: Notebook: pull reported log10 IC50 for human NHE-1 (Homo sapiens, UniProt P19634), entry "Cc1cc(Nc2cccc(S(F)(F)(F)(F)F)c2)c(S(C)(=O)=O)cc1C(=O)N=C(N)N"
Result :: 0.81

Reference source: patent US7381841B2
